Answer each item with its documented pEC50.
target: human FXR (Homo sapiens); assay: transient human FXR/Gal4-luciferase reporter assay; settings: Gal4-hFXR LBD fusion, luciferase reporter in HEK293 cells; response relative to 8 μM GW-4064
Sequence (Q96RI1 262-486 limits assumed): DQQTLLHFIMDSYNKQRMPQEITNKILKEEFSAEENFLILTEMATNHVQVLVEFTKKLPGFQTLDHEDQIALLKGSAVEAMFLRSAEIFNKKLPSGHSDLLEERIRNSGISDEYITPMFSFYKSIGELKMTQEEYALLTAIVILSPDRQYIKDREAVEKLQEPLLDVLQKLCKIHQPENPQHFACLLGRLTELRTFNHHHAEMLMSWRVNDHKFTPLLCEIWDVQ
Please express pEC50 as -log10 of the molar concentration.

Value wanted: pEC50 (human FXR (Homo sapiens)) of entry "CC(C)(C)c1noc(C23CCC(CN(C(=O)C4CCOCC4)c4cccc(-c5nc(C6CC6)no5)c4)(CC2)CC3)n1"
6.79

Please tell me: pEC50 of CC(F)(F)c1nc(C23CCC(CN(C(=O)C4CCC(O)(C(F)(F)F)CC4)c4cccc(-c5cc(C6CC6)on5)c4)(CC2)CC3)no1 (stereo not shown) [Example 157] , system human FXR (Homo sapiens)?
6.62

Request - read-out pEC50 | tested on human FXR (Homo sapiens) | compound "CC(C)(C)c1noc(C23CCC(CN(C(=O)C4CCC(F)(F)CC4)c4cccc(-c5cc(C6CC6)on5)c4)(CC2)CC3)n1"
7.11

Given the entry "O=C(C1CCCCC1)N(CC12CCC(c3nc(C4CC4)no3)(CC1)CC2)c1cccc(-c2nc(C3CC3)no2)c1" , what pEC50 was observed with human FXR (Homo sapiens)?
7.09
